molecular target: PDE4D3 (Homo sapiens, UniProt Q08499); construct: purchased BPS 60046; test: PDE4 activity inhibition assay, PDE4D3; assay type: biochemical; conditions: FAM-cAMP substrate, 30 minutes at room temperature
Sequence (Q08499 1-673 isoform Q08499-2): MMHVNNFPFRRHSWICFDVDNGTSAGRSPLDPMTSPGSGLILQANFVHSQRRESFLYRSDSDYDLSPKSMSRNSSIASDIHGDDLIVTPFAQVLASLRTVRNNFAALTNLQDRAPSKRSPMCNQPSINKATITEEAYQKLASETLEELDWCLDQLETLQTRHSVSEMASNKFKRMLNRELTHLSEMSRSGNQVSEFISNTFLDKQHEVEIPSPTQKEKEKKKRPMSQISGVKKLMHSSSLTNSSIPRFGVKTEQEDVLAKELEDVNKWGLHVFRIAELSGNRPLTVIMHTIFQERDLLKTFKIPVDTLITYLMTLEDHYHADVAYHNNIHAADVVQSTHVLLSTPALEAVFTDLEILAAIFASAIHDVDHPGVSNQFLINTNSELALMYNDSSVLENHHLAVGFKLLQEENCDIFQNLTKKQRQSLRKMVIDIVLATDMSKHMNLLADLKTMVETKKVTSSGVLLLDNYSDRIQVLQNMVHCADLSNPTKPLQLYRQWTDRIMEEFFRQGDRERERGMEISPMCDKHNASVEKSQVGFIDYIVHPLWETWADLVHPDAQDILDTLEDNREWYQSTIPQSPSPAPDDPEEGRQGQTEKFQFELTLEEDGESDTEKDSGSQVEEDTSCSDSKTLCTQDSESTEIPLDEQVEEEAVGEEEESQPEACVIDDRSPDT
Readings of IC50 for the listed compounds
metric_name: IC50 (nM)

# molecular_string, observed
records = [
    ("[2H]C([2H])([2H])Oc1ccc([C@@H](CS(C)(=O)=O)N2C(=O)c3cccc(NC(C)=O)c3C2=O)nc1OCC", 2),
    ("[2H]C([2H])([2H])Oc1ccc([C@H](CS(C)(=O)=O)N2C(=O)c3c(F)ccc(NC(C)=O)c3C2=O)cc1OCC", 31),
    ("CCOc1nc([C@@H](CS(C)(=O)=O)N2C(=O)c3c(F)ccc(NC(=O)C4CC4)c3C2=O)ccc1OC", 1),
    ("CCOc1nc([C@H](CS(C)(=O)=O)N2C(=O)c3cccc(NC(C)=O)c3C2=O)ccc1OC", 20),
]
